- ASSAYED SYSTEM: T1, rat SORT1 (76-752)-His (rat, UniProt O54861 76-752)
- T1 construct: range 76-752; Amine-coupled to CM5 chip for SPR
- T1 sequence (looked up): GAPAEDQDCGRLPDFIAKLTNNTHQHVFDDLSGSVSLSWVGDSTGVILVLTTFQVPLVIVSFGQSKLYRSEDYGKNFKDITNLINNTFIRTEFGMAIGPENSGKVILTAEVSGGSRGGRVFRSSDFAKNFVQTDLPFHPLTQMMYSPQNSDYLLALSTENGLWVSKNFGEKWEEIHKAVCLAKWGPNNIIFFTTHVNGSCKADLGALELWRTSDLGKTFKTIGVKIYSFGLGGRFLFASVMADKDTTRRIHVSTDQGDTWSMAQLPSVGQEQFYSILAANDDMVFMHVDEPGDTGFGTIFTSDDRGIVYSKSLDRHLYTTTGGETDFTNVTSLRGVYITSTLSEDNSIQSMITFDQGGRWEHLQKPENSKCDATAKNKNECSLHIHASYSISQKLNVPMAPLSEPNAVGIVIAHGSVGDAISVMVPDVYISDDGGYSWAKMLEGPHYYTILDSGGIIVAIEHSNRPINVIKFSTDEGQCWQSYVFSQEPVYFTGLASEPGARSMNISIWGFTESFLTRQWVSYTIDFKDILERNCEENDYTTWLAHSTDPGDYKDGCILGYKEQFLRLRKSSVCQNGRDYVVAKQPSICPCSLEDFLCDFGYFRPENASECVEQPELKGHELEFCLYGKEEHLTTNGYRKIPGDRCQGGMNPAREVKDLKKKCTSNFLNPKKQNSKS
- MEASUREMENT NOTES: SPR (Biacore 8K), SORT1 on CM5 chip, unconjugated peptide with conjugation handles as analyte, 1:1 model
Bridges are numbered along the chain shown (N, C = ends). Where no end group is shown, it is not given here. [ ]: non-standard residue; d: D form. conjugation handle = not defined here; tBuAla = CC(C)(C)C[C@H](N)C(=O)O; Cba = N[C@@H](CC1CCC1)C(=O)O; Tle = CC(C)(C)[C@H](N)C(=O)O; Nle = CCCC[C@H](N)C(=O)O
ATTRIBUTE MEASURED: pKd
pKd here is simply -log10 of the concentration when that concentration is written in mol/L.

In: GET /values?readout=pKd&item= RWCENK(conjugation handle)R[Nle]FTCRQ[Tle][tBuAla] (disulfide 3-11 (inferred); reading uncertain; also: K6 conjugation handle not given here, printed as RWCENKR(Nle)FTCRQ(B13)(F02)) [SORT1 peptide 3 (w/conjugation handles), unconjugated]
Out: 8.94

In: GET /values?readout=pKd&item= APRWDAPLRDPALRQ[Tle][Cba] (also: conjugation handles, not given here, also called Arb-SAR-Q15) [SORT1 peptide 2 (w/conjugation handles), unconjugated]
Out: 9.12
